Entries and their measured growth follow.
- Test system: E. coli TESEC Alr+ wild-type control
- Assay Name: growth (OD600 after 10 h); higher = more growth (less inhibition)
- Cond: compound 0.1 mM; raw OD600 reference: median of DMSO wells 0.241, cell-free background 0.041
Where a name gives a salt, the structure may show the parent alone.
Measurement Label: growth

| Compound | Numeric Readout |
| --- | --- |
| CCC1(c2cccc(O)c2)CCCCN(C)C1 (configuration not stated) [Meptazinol hydrochloride] | 0.257 |
| Oc1ccc2c3c1O[C@H]1[C@@H](O)CC[C@@]4(O)[C@@H](C2)N(CC2CCC2)CC[C@]314 [Nalbuphine hydrochloride] | 0.233 |
| CN[C@@H]1[C@@H](O)[C@@H](O[C@@H]2[C@@H](O)[C@H](O[C@H]3O[C@H](CN)CC[C@H]3N)[C@@H](N)C[C@H]2N)OC[C@]1(C)O.CN[C@@H]1[C@@H](O)[C@@H](O[C@@H]2[C@@H](O)[C@H](O[C@H]3O[C@H]([C@@H](C)N)CC[C@H]3N)[C@@H](N)C[C@H]2N)OC[C@]1(C)O.CN[C@@H]1[C@@H](O)[C@@H](O[C@@H]2[C@@H](O)[C@H](O[C@H]3O[C@H]([C@@H](C)NC)CC[C@H]3N)[C@@H](N)C[C@H]2N)OC[C@]1(C)O [Gentamicine sulfate] | 0.0458 |
| C[C@@]12N[C@@H](Cc3ccccc31)c1ccccc12 [(-)-MK 801 hydrogen maleate] | 0.226 |
| NC(=O)OCCCc1ccccc1 [Phenprobamate] | 0.219 |
| C[C@@H]1CN([C@H]2CC[C@](C#N)(c3ccc(F)cc3)CC2)CC[C@]1(C(=O)O)c1ccccc1 [Levocabastine hydrochloride] | 0.215 |
| CC(=O)OCC1=C(C(=O)O)N2C(=O)[C@@H](N)[C@H]2SC1 | 0.254 |

----------
- System: E. coli TESEC Mtb Alr
- Assay Name: growth (OD600 after 10 h); higher = more growth (less inhibition)
- Cond: arabinose 100000 nM; compound 0.1 mM; raw OD600 reference: median of DMSO wells 0.201, cell-free background 0.041
Counter-ions that a name gives are not always drawn.
Measurement Label: growth

| Compound | Numeric Readout |
| --- | --- |
| CCCC(C)(COC(N)=O)COC(=O)NC(C)C (configuration not stated) | 0.211 |
| C[N+]1(C)CCOC(O)(c2ccc(-c3ccc(C4(O)C[N+](C)(C)CCO4)cc3)cc2)C1 (configuration not stated) [Hemicholinium bromide] | 0.229 |
| CNC(C)(C)Cc1ccccc1 [Mephentermine hemisulfate] | 0.224 |
| C[C@]12CC[C@@H]3c4ccc(OC(=O)N(CCCl)CCCl)cc4CC[C@H]3[C@@H]1CC[C@@H]2O | 0.212 |
| CC[C@@H](CO)NC(=O)[C@@H]1C=C2c3cccc4[nH]cc(c34)C[C@H]2N(C)C1 [Methylergometrine maleate] | 0.279 |
| COc1ccc(Cc2nccc3cc(OC)c(OC)cc23)cc1OC [Papaverine hydrochloride] | 0.141 |
| CN(C)[C@@H]1C(=O)C(C(N)=O)=C(O)[C@@]2(O)C(=O)C3=C(O)c4c(O)cccc4[C@@](C)(O)[C@H]3C[C@@H]12 [Tetracycline hydrochloride] | 0.0418 |

----------
Examples of molecules with documented growth follow.
- Test system: E. coli TESEC Mtb Alr
- Assay Name: growth (OD600 after 10 h); higher = more growth (less inhibition)
- Cond: arabinose 100 nM; compound 0.1 mM; raw OD600 reference: median of DMSO wells 0.413, cell-free background 0.052
Structures can show the parent of a compound that is named as a salt.

| Molecule | growth |
| --- | --- |
| CC[C@@H](C(N)=O)N1CCCC1=O [Levetiracetam] | 0.409 |
| CCN(C(C)=O)c1cccc(-c2ccnc3c(C#N)cnn23)c1 [Zaleplon] | 0.411 |
| CC(C)[N+](C)(CCC(C(N)=O)(c1ccccc1)c1ccccc1)C(C)C [Isopropamide iodide] | 0.399 |
| NCCc1c[nH]c2ccc(O)cc12 [Serotonin hydrochloride] | 0.407 |
| COc1ccc(CN2CCNCC2)c(OC)c1OC [Trimetazidine dihydrochloride] | 0.409 |
| O=[N+]([O-])O[C@H]1CO[C@H]2[C@@H]1OC[C@H]2O[N+](=O)[O-] [Isosorbide dinitrate] | 0.408 |
| CNC(C)(C)Cc1ccccc1 [Mephentermine hemisulfate] | 0.402 |
| C[C@]12CC[C@@H]3c4ccc(OC(=O)N(CCCl)CCCl)cc4CC[C@H]3[C@@H]1CC[C@@H]2O [Estramustine] | 0.396 |
| NCC(O)c1ccc(O)cc1 (racemic) [(+,-)-Octopamine hydrochloride] | 0.408 |
| CC(N)C(O)c1ccccc1 (stereo not given) [Phenylpropanolamine hydrochloride] | 0.404 |
